Values were extracted from patent US7390813B1.

- assayed.target: stearoyl-CoA desaturase (SCD) (Mus musculus)
- Construct: % Remaining SCD activity compared to DMSO control in mouse liver microsome assay; from tissue; host or cells: mouse liver microsomes
- measurement.protocol: SCD mouse liver microsome assay (tritiated stearoyl-CoA desaturation)
- Format: biochemical
- condition: 0.1 uM test compound; mouse liver microsomes 100 μg, 15 min RT preincubation, 15 min RT desaturation
assay.readout: % Remaining SCD activity compared to DMSO control, average (%)

O=C(NCCCc1ccccc1)c1ccc(N2CCN(C(=O)c3cc(Cl)ccc3Cl)CC2)nc1 [Compound X10]	29.72
CCCCCCNC(=O)c1ccc(N2CCN(C(=O)c3ccccc3C(F)(F)F)CC2)nc1 [Compound X15]	44.95
COc1ccc(Br)c(C(=O)N2CCN(c3ccc(C(=O)NCCCc4ccccc4)cn3)CC2)c1 [Compound X17]	61.74
O=C(NCCc1ccccc1)c1ccc(N2CCN(C(=O)c3ccccc3Br)CC2)nc1 [Compound X04]	36.54
CCCCNC(=O)c1ccc(N2CCN(C(=O)c3ccccc3Br)CC2)nc1 [Compound X19]	75.14

[P] O=C(NCCc1ccccc1)c1ccc(N2CCN(C(=O)c3cc(Cl)ccc3Cl)CC2)nc1 [Compound X12]
[Q] Cc1ccccc1CC(=O)N1CCN(c2ccc(C(=O)NCCC(C)C)cn2)CC1 [Compound X21]
Problem: Of P and Q , which one carries the higher reported % Remaining SCD activity compared to DMSO control, average? Your answer should be the label attached to the chosen record.
Result: Q
(Q: 74.82%, P: 29.87%)

* * *

- assayed.target: stearoyl-CoA desaturase (SCD) (Mus musculus, UniProt P13516)
- Construct: % Remaining SCD activity compared to DMSO control in mouse liver microsome assay; from tissue; host or cells: mouse liver microsomes
- Sequence (P13516 1-355): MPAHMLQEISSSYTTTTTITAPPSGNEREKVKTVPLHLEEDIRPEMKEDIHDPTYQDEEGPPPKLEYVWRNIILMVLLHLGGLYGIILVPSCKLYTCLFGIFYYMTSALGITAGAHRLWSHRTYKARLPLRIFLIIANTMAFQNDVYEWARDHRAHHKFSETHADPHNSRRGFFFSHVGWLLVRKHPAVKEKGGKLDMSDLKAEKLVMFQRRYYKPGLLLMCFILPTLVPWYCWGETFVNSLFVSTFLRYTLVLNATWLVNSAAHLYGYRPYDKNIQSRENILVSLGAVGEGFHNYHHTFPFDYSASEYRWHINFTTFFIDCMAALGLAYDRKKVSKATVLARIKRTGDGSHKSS
- measurement.protocol: SCD mouse liver microsome assay (tritiated stearoyl-CoA desaturation)
- Type: biochemical
- condition: 10 uM test compound; mouse liver microsomes 100 μg, 15 min RT preincubation, 15 min RT desaturation
assay.readout: % Remaining SCD activity compared to DMSO control, average (%)

O=C(NCCCc1ccccc1)c1ccc(N2CCN(C(=O)c3ccccc3C(F)(F)F)CC2)nc1	0.72
CC(C)CCNC(=O)c1ccc(N2CCN(C(=O)c3ccc(Cl)cc3Cl)CC2)nc1	1.39
Cc1ccccc1CC(=O)N1CCN(c2ccc(C(=O)NCCC(C)C)cn2)CC1	3.94
CC(C)CCNC(=O)c1ccc(N2CCN(C(=O)c3ccccc3C(F)(F)F)CC2)nc1	0.81
O=C(NCCc1ccccc1)c1ccc(N2CCN(C(=O)c3cc(Cl)ccc3Cl)CC2)nc1	1.15
Cc1ccsc1C(=O)N1CCN(c2ccc(C(=O)NCCc3cccc(Cl)c3)cn2)CC1	3.41
CCCCCNC(=O)c1ccc(N2CCN(C(=O)c3ccccc3Br)CC2)nc1	1.75

[A] CC(C)CCNC(=O)c1ccc(N2CCN(C(=O)c3cccc4ccccc34)CC2)nc1
[B] CCCCNC(=O)c1ccc(N2CCN(C(=O)c3ccccc3Br)CC2)nc1
[C] O=C(NCCc1cccc(Cl)c1)c1ccc(N2CCN(C(=O)c3ccccc3C(F)(F)F)CC2)nc1
Problem: Rank items: key % Remaining SCD activity compared to DMSO control, average, increasing. List the labels in the requested order.
Result: C, A, B
(C: 1.42%, A: 2.06%, B: 3.57%)

* * *

- assayed.target: stearoyl-CoA desaturase (SCD) (Mus musculus, UniProt P13516)
- Construct: % Remaining SCD activity compared to DMSO control in mouse liver microsome assay; from tissue; host or cells: mouse liver microsomes
- Sequence (P13516 1-355): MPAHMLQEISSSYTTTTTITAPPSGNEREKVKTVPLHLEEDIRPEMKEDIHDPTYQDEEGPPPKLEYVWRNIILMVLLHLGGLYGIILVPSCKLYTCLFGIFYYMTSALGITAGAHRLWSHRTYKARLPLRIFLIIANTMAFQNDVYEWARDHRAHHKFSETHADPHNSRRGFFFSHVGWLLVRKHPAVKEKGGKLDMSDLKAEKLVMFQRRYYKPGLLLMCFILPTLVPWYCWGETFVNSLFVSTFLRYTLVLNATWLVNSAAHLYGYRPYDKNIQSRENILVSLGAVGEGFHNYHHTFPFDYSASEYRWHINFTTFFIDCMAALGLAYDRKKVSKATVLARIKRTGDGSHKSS
- measurement.protocol: SCD mouse liver microsome assay (tritiated stearoyl-CoA desaturation)
- Assay type: biochemical
- condition: Table 5; % remaining SCD activity at 10 μM, mouse microsome assay
assay.readout: % Activity 10 μM (%)

Consider the reported % Activity 10 μM for these molecules:
CCCCCNC(=O)c1ccc(N2CCN(C(=O)c3cc(Cl)ccc3Cl)CC2)nc1 [Compound X06]	2
CCCCNC(=O)c1ccc(N2CCN(C(=O)c3ccccc3Br)CC2)nc1 [Compound X19]	3.57
CCCCNC(=O)c1ccc(N2CCN(C(=O)c3ccccc3C(F)(F)F)CC2)nc1 [Compound X09]	2.7

[I] CCCCCNC(=O)c1ccc(N2CCN(C(=O)c3ccccc3C(F)(F)F)CC2)nc1 [Compound X11]
[II] Cc1ccsc1C(=O)N1CCN(c2ccc(C(=O)NCCc3cccc(Cl)c3)cn2)CC1 [Compound X18]
Problem: Of I and II , which one carries the higher reported % Activity 10 μM? Your answer should be the label attached to the chosen record.
Result: II

* * *

- assayed.target: stearoyl-CoA desaturase (SCD) (Mus musculus, UniProt P13516)
- Construct: % Remaining SCD activity compared to DMSO control in mouse liver microsome assay; from tissue; host or cells: mouse liver microsomes
- Sequence (P13516 1-355): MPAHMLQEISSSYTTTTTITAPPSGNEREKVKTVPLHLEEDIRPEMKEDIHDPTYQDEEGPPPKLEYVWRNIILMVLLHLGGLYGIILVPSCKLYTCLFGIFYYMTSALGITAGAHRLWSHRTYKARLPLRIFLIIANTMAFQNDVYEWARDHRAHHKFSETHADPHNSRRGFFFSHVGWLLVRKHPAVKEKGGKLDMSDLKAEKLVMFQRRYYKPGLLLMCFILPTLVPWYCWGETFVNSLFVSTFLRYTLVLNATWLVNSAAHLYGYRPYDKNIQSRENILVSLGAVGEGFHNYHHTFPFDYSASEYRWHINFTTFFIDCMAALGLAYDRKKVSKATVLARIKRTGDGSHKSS
- measurement.protocol: SCD mouse liver microsome assay (tritiated stearoyl-CoA desaturation)
- Type: biochemical
- condition: 1 uM test compound; mouse liver microsomes 100 μg, 15 min RT preincubation, 15 min RT desaturation
assay.readout: % Remaining SCD activity compared to DMSO control, average (%)

Consider the reported % Remaining SCD activity compared to DMSO control, average for these molecules:
CCCCCNC(=O)c1ccc(N2CCN(C(=O)c3cc(Cl)ccc3Cl)CC2)nc1	5.38
CC(C)CCNC(=O)c1ccc(N2CCN(C(=O)c3ccc(Cl)cc3Cl)CC2)nc1	7.44
Cc1ccsc1C(=O)N1CCN(c2ccc(C(=O)NCCc3cccc(Cl)c3)cn2)CC1	32.64
CCCCCCNC(=O)c1ccc(N2CCN(C(=O)c3ccccc3C(F)(F)F)CC2)nc1	6.46
O=C(NCCc1cccc(Cl)c1)c1ccc(N2CCN(C(=O)c3ccccc3C(F)(F)F)CC2)nc1	9.05
COc1ccc(Br)c(C(=O)N2CCN(c3ccc(C(=O)NCCCc4ccccc4)cn3)CC2)c1	10.59
CCCCCNC(=O)c1ccc(N2CCN(C(=O)c3ccccc3C(F)(F)F)CC2)nc1	3.67
CC(C)CCNC(=O)c1ccc(N2CCN(C(=O)c3ccccc3C(F)(F)F)CC2)nc1	3.05
CCCCNC(=O)c1ccc(N2CCN(C(=O)c3ccccc3Br)CC2)nc1	18.59
CC(C)CCNC(=O)c1ccc(N2CCN(C(=O)c3cccc4ccccc34)CC2)nc1	7.01

[P] CCCCCNC(=O)c1ccc(N2CCN(C(=O)c3ccccc3Br)CC2)nc1
[Q] Cc1ccccc1CC(=O)N1CCN(c2ccc(C(=O)NCCC(C)C)cn2)CC1
[R] CCCCNC(=O)c1ccc(N2CCN(C(=O)c3ccccc3C(F)(F)F)CC2)nc1
[S] O=C(NCCc1ccccc1)c1ccc(N2CCN(C(=O)c3cc(Cl)ccc3Cl)CC2)nc1
[T] O=C(NCCCc1ccccc1)c1ccc(N2CCN(C(=O)c3ccccc3C(F)(F)F)CC2)nc1
Problem: Rank items: key % Remaining SCD activity compared to DMSO control, average, increasing. List the labels in the requested order.
Result: T, S, P, R, Q
(T: 2.17%, S: 3.91%, P: 7.77%, R: 14.80%, Q: 33.28%)
